Quick reference for KIDNEY_TOTAL among some molecules
# Organism: Rattus norvegicus
# Protocol: Open TG-GATES - Regimen: Daily Repeat
# Assay type: toxicity, organism-based, Sprague-Dawley
# Parameters: regimen Daily Repeat, gender Male, age 6 weeks
# Cond: in vivo, po, 0 mg/kg, […], tissue Kidney, route gavage, dose level Control, time 7 day
Quantity measured: KIDNEY_TOTAL (g)

{"columns": ["Molecule", "Quantity measured", "Unit name", "Observed value"],
 "data": [
  ["CC1=C(CC(=O)O)c2cc(F)ccc2/C1=C\\c1ccc([S+](C)[O-])cc1 (stereo not given)", "KIDNEY_TOTAL", "g", 2.1],
  ["CC(C)N(CCC(C(N)=O)(c1ccccc1)c1ccccn1)C(C)C (stereo not given) [DISOPYRAMIDE]", "KIDNEY_TOTAL", "g", 2.3],
  ["CCC1(c2ccccc2)C(=O)NC(=O)NC1=O", "KIDNEY_TOTAL", "g", 2.1],
  ["ClC(Cl)(Cl)Cl [CARBON TETRACHLORIDE]", "KIDNEY_TOTAL", "g", 2.1],
  ["CN(C)CCC=C1c2ccccc2COc2ccccc21 [DOXEPIN]", "KIDNEY_TOTAL", "g", 2.2]
]}
